# testName: NCI Yeast Anticancer Drug Screen. Data for the rad50 strain (AID 155);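 also: 0% = growth of vehicle-only cultures of the same strain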
# conditionLabel: S. cerevisiae rad50 strain growth inhibition; at 50.0 µM; hits give high values
Compounds without any hit were thinned out: in the full panel of roughly 79,000, 15% have a hit. Calls of active or inactive are those of the source. Rule as the data show it: active = growth inhibition above about 70%; inactive = the rest.
Can you tell me growth inhibition for the items I'm about to list?

Query: Reported growth inhibition, compound O=C(CCC(NC(=O)OCc1ccccc1)C(=O)OCc1ccccc1)Nc1cccc(OCc2ccccc2)c1 (stereo unspecified) : ____
Result: -16.2% (inactive)

Query: For "CN1c2cccc3cccc(c23)NC12CCCCC2" then?
Result: 0.6% (inactive)

Query: Same thing, different compound: "CC(=O)Nc1ccc(S(=O)(=O)N/N=c2/sc3ccccc3n2C)cc1"
Result: -11.3% (inactive)

Query: Consider next the compound "COc1cccc2c1N=c1c(Cl)c3c(c(Cl)c1O2)=Nc1c(OC)cccc1O3" in the same way.
Result: -17.9% (inactive)

Query: Okay, and "OCC1(c2ccccc2)CCNCC1" ?
Result: -8.7% (inactive)

Query: Next: "N#Cc1ccc(OCCCCCOc2ccc(C#N)cc2)cc1"
Result: -11.2% (inactive)

====

# testName: NCI Yeast Anticancer Drug Screen. Data for the sgs1 mgt1 strain (AID 161);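 also: 0% = growth of cultures given vehicle only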
# conditionLabel: S. cerevisiae sgs1 mgt1 strain, at 50.0 µM, hits give high values
Compounds without any hit were thinned out: in the full panel of roughly 79,000, 15% have a hit.
For each entry below, report its growth inhibition value.
I only need the number, in %, no unit after it.

Query: // returns reported growth inhibition for input "Nc1ncnc2c1ncn2[C@@H]1C[C@H]1CO"
Result: -23.6

Query: Request: "C1=Cc2nc1c(-c1ccncc1)c1ccc([n-]1)c(-c1ccncc1)c1nc(c(-c3ccncc3)c3ccc([n-]3)c2-c2ccncc2)C=C1.[Zn+2]"
Result: -8.95

Query: What about CC1C(O)C(c2ccccc2)(c2ccccc2)C(C)CN1C (stereo unspecified) ?
Result: 4.15

Query: Same question for "CCCCC(O)(CCC)CCCC" please.
Result: 3.75

Query: "CC(=O)OCC/C=C\CCCOC(C)=O" ?
Result: -3

Query: Next record, please: "O=c1cc(O)n2ncnc2[nH]1"
Result: -21.8

Query: Same lookup for "C#CCOC(=O)c1ccc(C(=O)OCC#C)cc1" , please.
Result: -9.3

Query: Try this molecule too: "C[C@@]12C[C@@H](c3ccccc3O1)N1CCCSC1=N2"
Result: 4.6

Query: Now the molecule "Cc1cccc(-c2cc(=O)c3c(C)cc(C)nc3[nH]2)c1"
Result: 21.9

Query: Further, for Cc1cc(=O)[nH]c(NN2C(Cl)C(=O)C2c2c(O)ccc3ccccc23)n1 (stereo unspecified) ?
Result: -0.75

Query: Follow-up item: "Cc1onc(-c2c(F)cccc2Cl)c1C(=O)Nc1cc2cc([N+](=O)[O-])ccc2oc1=O"
Result: 2.3

====

Could you please report measured growth inhibition for the items listed next?
# testName: NCI Yeast Anticancer Drug Screen. Data for the sgs1 mgt1 strain (AID 161);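 also: 0% = growth of cultures given vehicle only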
# conditionLabel: S. cerevisiae sgs1 mgt1 strain, at 50.0 µM, hits give high values
About 79,000 compounds went through this panel and 15% of them were active in at least one assay; those are over-represented in the sample as a whole.
# number only, unit % dropped from output

Query: Look up growth inhibition: CC1OC(c2ccccc2)C(=O)N1C1(C)C(=O)N2CCOC21c1ccccc1 (configuration not stated)
Result: 2.15

Query: Next compound: "NC(=O)/C(=C\c1ccncc1)c1cccc2ccccc12"
Result: -41.1

Query: How about "CC1=C(Br)C(=O)C(c2c(C)cc(C)cc2C)=C(Br)C1=O" ?
Result: 98.2

Query: Further, for "COc1ccc(C(=O)OCc2ccccc2CN2CCCCC2)cc1" ?
Result: 11.4

Query: Entry to check: Cc1c(Cl)c(=O)oc2cc(OCC(O)COC(C)C)ccc12 (configuration not stated)
Result: -36.3

Query: And "CCN(CC)C(=N)N" ?
Result: -27.2

Query: Now this one: "COc1cc([N+](=O)[O-])c(C=O)c(C(=O)O)c1OC"
Result: -10.3

Query: And for "[Cl][Pt+2][Cl].[NH-]c1ccccc1F.[NH-]c1ccccc1F" ?
Result: -14.8

Query: Also, "Cc1csc(-n2nc(C)cc2C)n1" please.
Result: -37.2

Query: And what about the compound "O=C(COC(=O)c1ccccc1)c1ccc(-c2ccccc2)cc1" ?
Result: 11.8

Query: Item: "CC(=O)CC(=O)NCCCc1ccccc1"
Result: -21.6

Query: And for COc1cc([C@@H]2OC[C@@H]3C(c4cc(OC)c5c(c4)OCO5)OC[C@@H]32)cc(OC)c1OC (some centres not stated) ?
Result: 26.6

====

# testName: NCI Yeast Anticancer Drug Screen. Data for the mec2-1 strain (AID 157)
# conditionLabel: S. cerevisiae mec2-1 strain, at 50.0 µM, hits give high values
About 79,000 compounds went through this panel and 15% of them were active in at least one assay; those are over-represented in the sample as a whole.
parameterMeasured: growth inhibition (%)
Numeric only. Scale: %

Query: Would you kindly share the measured growth inhibition for "Cc1c([N+](=O)[O-])cc(C(C)(C)C)c(OC(=O)CCl)c1[N+](=O)[O-]" ?
Result: 99.7

Query: Please answer likewise for "C=CCCCOC(C)=O"
Result: -10.9

Query: Now consider O=C(Nc1ccn(C2OC(CO)C(O)C2O)c(=O)n1)Nc1ccn(C2OC(CO)C(O)C2O)c(=O)n1 (stereo unspecified) .
Result: -17.6

Query: What do we get for "CNc1ncnc2n[nH]nc12" ?
Result: -0.35

Query: Can you handle COc1ccc2ccccc2c1C1NC(=O)c2ccccc2N1 (stereo unspecified) next?
Result: -17.8

Query: Could you do the same for "COC(=O)C(C)(C)c1ccccc1C(C)(C)C(=O)OC" , please?
Result: 6.05

Query: Do the same for "Cc1cc(=O)[nH]c2c(C)cccc12" please
Result: 28.2

Query: One more compound: "CC(=O)Nc1cc2cc(Br)ccc2oc1=O"
Result: 33.4

Query: Check "Cc1c(Cl)cccc1NC(=O)c1c(Cl)c(Cl)c(Cl)c(Cl)c1C(=O)O" too.
Result: -1.35

Query: Thanks! And CC(=O)OC1CC[C@@]2(C)C(C1)CC(OC(C)=O)[C@@H]1C2CC(OC(C)=O)[C@]2(C)C(C(C)CC=C(c3ccc(Cl)cc3)c3ccc(Cl)cc3)CCC12 (stereo partly specified) ?
Result: 2.8

Query: For Cc1cc2c(cc1C)NC(=O)C(NC(=O)c1ccc(Cl)cc1)C=N2 (stereo unspecified) then?
Result: 15.6

====

# testName: NCI Yeast Anticancer Drug Screen. Data for the sgs1 mgt1 strain (AID 161);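 also: 0% = growth of cultures given vehicle only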
# conditionLabel: S. cerevisiae sgs1 mgt1 strain, at 50.0 µM, hits give high values
About 79,000 compounds went through this panel and 15% of them were active in at least one assay; those are over-represented in the sample as a whole.
Consider the following compounds; for each one, report its growth inhibition.
Kindly provide the numeric value in % only, without the unit symbol.

Query: Entry under review: CC1CC([NH-])C([NH-])C(C)(C)C1.[Cl][Pt+2][Cl] (stereo unspecified) . Reported growth inhibition?
Result: -9.95

Query: Follow-up item: "O=C1CNC(=O)N1Nc1ccccc1"
Result: -2.35

Query: Please do the same for "CCOC(=O)CCc1cnc[nH]1" as well.
Result: -3.05

Query: Check O=C1/C(=C/c2ccc(Cl)cc2)CCC1CNc1ccc(Cl)cc1 (stereo unspecified) too.
Result: -15.6

Query: // query: C[n+]1c2ccccc2c(CNC(CCC(N)=O)C(=O)O)c2ccccc21 (stereo unspecified)
Result: 80.6

Query: Then what about the compound "CCCCC(=O)N1SC(NC(=O)OC)=Nc2ccccc21" ?
Result: 61.8

Query: Also check CC(C)=CCCC(C)(OC1OC(COC2OCC(O)C(O)C2O)C(O)C(O)C1O)C1CCC2(C)C1C(O)CC1C3(C)CCC(OC4OC(CO)C(O)C(O)C4OC4OC(CO)C(O)C(O)C4O)C(C)(C)C3CCC12C (stereo unspecified)
Result: -6.05

Query: Next compound: CN(C)C12CCCCCC1S(=O)(=O)C2 (stereo unspecified)
Result: 0.85

Query: And "O=C(O)c1nc2ccccc2c(=O)[nH]1" ?
Result: -9.7

Query: What do you have for O=c1cc(Cl)ncn1C1OC(CO)C(O)C1O (stereo unspecified) ?
Result: -27.6

Query: "O=[N+]([O-])c1ccc(N=Nc2c(O)[nH]c3ccc(Br)cc23)cc1" , same question.
Result: 14.3

====

# testName: NCI Yeast Anticancer Drug Screen. Data for the mlh1 rad18 strain (AID 175)
# conditionLabel: S. cerevisiae mlh1 rad18 strain growth inhibition; at 50.0 µM
About 79,000 compounds went through this panel and 15% of them were active in at least one assay; those are over-represented in the sample as a whole. Activity calls are given as the source filed them. Rule as the data show it: active = growth inhibition above about 70%; inactive = the rest.
Just give me one of these, please: Y for active, N for inactive

Query: // outcome(item) with item = "COc1ccc(C2=CN(S(=O)(=O)c3ccc(C)cc3)CCc3ccccc32)cc1"
Result: N

Query: Okay, and "COc1ccc(OC)c(C2=CCCCCC2)c1" ?
Result: N

Query: Again, but for CCc1c2c(cc3c1CC1(C3)Cc3cc4c(c(C(=O)OC)c3C1)CCCC4)CCCC2 (centres undefined)
Result: N

Query: And for "CN(C)c1ccc([O-])cc1.CN(C)c1ccc([O-])cc1.CN(C)c1ccc([O-])cc1.CN(C)c1ccc([O-])cc1.[Ti+4]" ?
Result: N

Query: Continue with "CCCCOc1ccc(Nc2c(C(=O)OCC)cnc3cc4c(cc23)OCO4)cc1"
Result: N

Query: Now consider "O=S1(=O)CCNc2ccccc2O1" and answer again.
Result: N

Query: Another molecule: O=CC(O)C(O)C(O)C(O)COC1OC(CO)C(O)C(O)C1O (centres undefined)
Result: N

Query: Now the same for "C[N+]1(C)CCC[N+](C)(C)CC1"
Result: N

Query: Now try "CCNC(=O)Oc1cccc(NC(=O)CC)c1" .
Result: N

Query: Queued: O=C1c2cc(Cl)ccc2NC(O)c2cccn21 (centres undefined)
Result: N

Query: Lookup "CC(C)c1ccc(C(C)(C)O)cc1"
Result: N

Query: How about this molecule: "O=C1COCC(=O)N1"
Result: N

Query: Lookup "CN(c1ccccc1)c1cc2c(cc1[N+](=O)[O-])no[n+]2[O-]"
Result: Y

Query: Next record, please: "CC(=O)OCCCC(CCCOC(C)=O)OC(C)=O"
Result: N

Query: Now the same for "C=CCOc1cc2c(cc1Cc1ccc3c(c1)OCO3)OCO2"
Result: N

Query: Input "COC(=O)N1c2ccccc2N(C(=O)OC)c2c1oc1ccccc1c2=O"
Result: N

Query: Proceed to Cc1ccc(C2OC(=O)C(=O)C2=O)cc1 (centres undefined)
Result: N

Query: Request: "C[n+]1ccccc1C#N"
Result: N

Query: Another: "Nc1nc(-c2ccccc2)nc2[nH]ncc12"
Result: N

Query: Try this molecule next: "COc1cc2c(C)cc(O)cc2c2cc(O)c(C)cc12"
Result: Y

Query: Similarly, "CCCCN(CCO)CCO" ?
Result: N

Query: Entry CC1=C(C(=O)Nc2cc(F)c(F)cc2F)C(c2cccc([N+](=O)[O-])c2)C(C(=O)Nc2ccccc2C(F)(F)F)=C(C)N1 (centres undefined) please
Result: N

Query: Follow-up entry: "[Cl][Pt+2][Cl].[NH-]c1cccc(C(F)(F)F)c1.[NH-]c1cccc(C(F)(F)F)c1"
Result: N

Query: Another molecule to look at: "Nc1[nH]c(=O)ncc1-c1cccc(Cl)c1"
Result: N

Query: Entry "Cc1ccc2nc(CC(=O)c3ccc4ccccc4c3)c(=O)[nH]c2c1" please
Result: N

Query: How about "Cn1nc(-c2ccccc2)c(C(=O)/C=C/c2ccc(F)cc2)c(N2CCCCC2)c1=O" ?
Result: N

Query: Also, COC(=O)COC(=O)C1C(C(N)=O)N(CC(=O)OC)CCN1CC(=O)OC (centres undefined) please.
Result: N

Query: Now the same for CC(=O)C(C)CCOC1(C)OCCC1C (centres undefined)
Result: N

Query: And what about the molecule "CCCCC(N)=O" ?
Result: N

Query: Follow-up entry: "CCN(CC)C(=O)c1c2nc3c(C(=O)N(CC)CC)ccc(C)c3oc-2c(C)c(=O)c1N"
Result: N

Query: Also "CCOC(=O)C/C(C)=N/NS(=O)(=O)c1ccc(NC(C)=O)cc1" ?
Result: N

Query: And what about the molecule "COC1=CC(=O)C=C(OC)C1=O" ?
Result: N

Query: Next molecule: "CN(C)CCNC(=O)CN"
Result: N

Query: COc1ccc2c(c1)OCCN(C)OC2c1cccc(Cl)c1 (centres undefined) ?
Result: N

Query: Next entry: CCOC(=O)C1Sc2ccccc2N=C1C (centres undefined)
Result: N

Query: And then "CCc1ccc(N=Nc2ccc(Br)cc2)cc1" , what is it?
Result: N

Query: What about this molecule? "O=c1[nH]c2cc(Cl)c([N+](=O)[O-])cc2c2ccccc12"
Result: N

Query: Another molecule to look at: "C=CCNC(=S)/N=C\c1c(C)[nH]n(-c2ccccc2)c1=O"
Result: N

Query: // same read-out, input: Clc1ccccc1C(Cl)c1ccccc1 (centres undefined)
Result: N

Query: Record: CCN(CC)CCCOC(c1ccccc1)c1ccc(Cl)cc1 (centres undefined)
Result: N

Query: Input "CCCc1ccc(OCC(=O)O)c(OC)c1"
Result: N

Query: Similarly, O=C(Nc1cccc(C(F)(F)F)c1)C(=O)C(C(=O)c1ccc(Cl)c(Cl)c1)C1OC(=O)c2ccccc21 (centres undefined) ?
Result: N

Query: // query: "O=c1[nH]cnc2ncnn12"
Result: N

Query: Another molecule to look at: COc1nc2c(nc(N)n2C2OC(CO)C(O)C(O)C2O)c(=O)[nH]1 (centres undefined)
Result: N

Query: Record: COC(=O)C1C(=O)N(C)c2cc(C)c(C)cc2C1(C)C (centres undefined)
Result: N

Query: Again, but for "Clc1ccc(NC2=NCCN=C(Nc3ccc(Cl)c(Cl)c3)SS2)cc1Cl"
Result: N

Query: Query CC1(C(=O)O)C2CCC(C2)C1C(=O)O (centres undefined) next
Result: N

Query: How about this molecule: "CCOC(=O)CCCCN(CC)CCCCC(=O)OCC"
Result: N

Query: Entry C[N+]1(C)CCC2=CC(=O)CC(c3ccccc3)C2C1 (centres undefined) please
Result: N
